target: T1, murine GPC3-his protein (Sino Biological, Cat. No. 50989-M08B) (murine, UniProt Q8CFZ4 25-558); test: ELISA, coated murine GPC3-His;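 further: antigen coated on plates at 1 µg/mL, test antibody bound for 2 h at 37 °C, detected with HRP-conjugated secondary antibody and TMB substrate after acid stop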
T1 construct: Bought protein; also called murine GPC3 protein
T1 sequence (Q8CFZ4 25-558 limits assumed): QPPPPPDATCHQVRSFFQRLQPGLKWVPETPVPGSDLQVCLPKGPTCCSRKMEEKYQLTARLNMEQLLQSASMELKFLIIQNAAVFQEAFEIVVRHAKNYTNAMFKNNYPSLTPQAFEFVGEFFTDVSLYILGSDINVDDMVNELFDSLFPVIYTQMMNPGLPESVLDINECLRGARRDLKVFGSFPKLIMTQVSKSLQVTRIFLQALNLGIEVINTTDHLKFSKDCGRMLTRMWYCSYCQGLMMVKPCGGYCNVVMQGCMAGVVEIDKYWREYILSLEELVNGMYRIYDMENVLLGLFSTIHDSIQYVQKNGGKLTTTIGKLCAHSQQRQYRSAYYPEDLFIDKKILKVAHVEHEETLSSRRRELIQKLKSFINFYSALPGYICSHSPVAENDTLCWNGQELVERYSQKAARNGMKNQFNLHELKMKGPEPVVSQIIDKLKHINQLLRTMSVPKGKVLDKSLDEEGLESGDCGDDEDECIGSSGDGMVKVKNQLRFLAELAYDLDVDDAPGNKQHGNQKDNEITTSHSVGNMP
I'd be grateful if you could share measured OD450 at 0.01 nM antibody for these entries.
Numbers only, in OD450 nm.

Some binders with recorded OD450 at 0.01 nM antibody:
[
  {
    "Binder": "F1.21.8 human-murine chimeric antibody (antibody, human IgG1, kappa, V domains shown) VH: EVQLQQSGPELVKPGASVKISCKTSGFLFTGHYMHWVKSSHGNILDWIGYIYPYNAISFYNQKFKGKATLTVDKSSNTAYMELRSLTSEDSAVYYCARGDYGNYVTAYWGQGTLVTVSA VL: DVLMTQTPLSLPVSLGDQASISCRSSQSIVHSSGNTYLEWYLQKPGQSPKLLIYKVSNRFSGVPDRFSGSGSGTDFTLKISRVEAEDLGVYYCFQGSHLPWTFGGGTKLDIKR",
    "OD450 at 0.01 nM antibody, OD450 nm": 0.17
  },
  {
    "Binder": "F3.54.12 human-murine chimeric antibody (antibody, human IgG1, kappa, V domains shown) VH: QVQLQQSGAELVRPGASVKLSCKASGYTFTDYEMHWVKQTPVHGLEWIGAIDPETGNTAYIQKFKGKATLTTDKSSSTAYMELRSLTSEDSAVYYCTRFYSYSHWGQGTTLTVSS VL: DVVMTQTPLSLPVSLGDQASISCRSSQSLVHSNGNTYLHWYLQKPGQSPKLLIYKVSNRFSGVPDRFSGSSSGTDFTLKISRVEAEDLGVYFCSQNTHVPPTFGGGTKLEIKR",
    "OD450 at 0.01 nM antibody, OD450 nm": 0.05
  }
]

Q. Requested field: OD450 at 0.01 nM antibody. Item: F4.26.1 human-murine chimeric antibody (antibody, human IgG1, kappa, V domains shown) VH: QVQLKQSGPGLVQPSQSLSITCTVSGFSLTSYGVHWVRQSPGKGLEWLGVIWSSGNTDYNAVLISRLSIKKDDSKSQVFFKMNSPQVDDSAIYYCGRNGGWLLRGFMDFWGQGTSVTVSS VL: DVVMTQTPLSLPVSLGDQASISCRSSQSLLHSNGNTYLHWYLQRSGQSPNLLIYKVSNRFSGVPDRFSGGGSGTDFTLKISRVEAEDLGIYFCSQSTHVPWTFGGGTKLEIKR
A. 0.11
